Source listed as patent US20220289794A1.

# Test system: Pseudomonas aeruginosa (ATCC 27883)
# condition_label: ATCC 27883
Non-standard residues stand in square brackets, D forms with d. Residues, ends and D or L forms follow the SMILES beside them. Dip = N[C@H](C(=O)O)C(c1ccccc1)c1ccccc1; 2Nal = N[C@@H](Cc1ccc2ccccc2c1)C(=O)O; d2Nal = N[C@H](Cc1ccc2ccccc2c1)C(=O)O
reported_metric: MIC P. aeruginosa ATCC 27883 (µg/mL)

1. N=C(N)NCCC[C@@H]1NC(=O)[C@H](CCCNC(=N)N)NC(=O)[C@H](CCCNC(=N)N)NC(=O)[C@H](Cc2ccc3ccccc3c2)NC(=O)[C@@H](Cc2ccc3ccccc3c2)NC(=O)[C@H](Cc2ccc3ccccc3c2)NC(=O)[C@H](CCCNC(=N)N)NC1=O [IFX-075, c[Arg-Arg-Arg-Arg-NaI-naI-NaI]] (cyclo(RRRR[2Nal][d2Nal][2Nal])) ... 12.5
2. N=C(N)NCCC[C@H]1NC(=O)[C@H](Cc2ccc3ccccc3c2)NC(=O)[C@H](Cc2ccc3ccccc3c2)NC(=O)[C@H](Cc2ccc3ccccc3c2)NC(=O)[C@@H](CCCNC(=N)N)NC(=O)[C@@H](CCCNC(=N)N)NC(=O)[C@@H](CCCNC(=N)N)NC1=O [IFX-087, c[arg-arg-arg-arg-NaI-NaI-NaI]] (cyclo([dR][dR][dR][dR][2Nal][2Nal][2Nal])) ... 12.5
3. N=C(N)NCCC[C@H](NC(=O)[C@H](CCCNC(=N)N)NC(=O)[C@@H](N)CCCNC(=N)N)C(=O)N[C@@H](CCCNC(=N)N)C(=O)N[C@H](C(=O)N[C@H](C(=O)N[C@H](C(=O)N[C@H](C(=O)O)C(c1ccccc1)c1ccccc1)C(c1ccccc1)c1ccccc1)C(c1ccccc1)c1ccccc1)C(c1ccccc1)c1ccccc1 [IFX-005-1, NH2-Arg-Arg-Arg-Arg-Dip-Dip-Dip-Dip-OH] (H-RRRR[Dip][Dip][Dip][Dip]-OH) ... 50
4. N=C(N)NCCC[C@@H]1NC(=O)[C@H](Cc2ccc3ccccc3c2)NC(=O)[C@H](Cc2ccc3ccccc3c2)NC(=O)[C@@H](Cc2c[nH]c3ccccc23)NC(=O)[C@@H](CCCNC(=N)N)NC(=O)[C@@H](CCCNC(=N)N)NC(=O)[C@H](CCCNC(=N)N)NC1=O [IFX-120, c[Arg-Arg-arg-arg-trp-NaI-NaI]] (cyclo(RR[dR][dR][dW][2Nal][2Nal])) ... 32
5. N=C(N)NCCC[C@H]1NC(=O)[C@H](Cc2ccc3ccccc3c2)NC(=O)[C@H](Cc2ccc3ccccc3c2)NC(=O)[C@@H](Cc2c[nH]c3ccccc23)NC(=O)[C@@H](CCCNC(=N)N)NC(=O)[C@@H](CCCNC(=N)N)NC(=O)[C@@H](CCCNC(=N)N)NC(=O)[C@@H](CCCNC(=N)N)NC1=O [IFX-123, c[arg-arg-arg-arg-arg-trp-NaI-NaI]] (cyclo([2Nal][2Nal][dR][dR][dR][dR][dR][dW])) ... 16

###

# test_protocol: in vitro
# condition_label: human, fresh human red blood cells (washed), pH 7.4
Non-standard residues stand in square brackets, D forms with d. Residues, ends and D or L forms follow the SMILES beside them. dDip = N[C@@H](C(=O)O)C(c1ccccc1)c1ccccc1; 2Nal = N[C@@H](Cc1ccc2ccccc2c1)C(=O)O
reported_metric: HC50 at 0.5 h (µg/mL)

1. N=C(N)NCCC[C@H](NC(=O)[C@@H](CCCNC(=N)N)NC(=O)[C@@H](N)CCCNC(=N)N)C(=O)N[C@H](CCCNC(=N)N)C(=O)N[C@@H](C(=O)N[C@@H](C(=O)N[C@@H](C(=O)O)C(c1ccccc1)c1ccccc1)C(c1ccccc1)c1ccccc1)C(c1ccccc1)c1ccccc1 [IFX-070-1] (H-R[dR]R[dR][dDip][dDip][dDip]-OH) ... 380
2. N=C(N)NCCC[C@@H](N)C(=O)N[C@H](CCCNC(=N)N)C(=O)N[C@H](CCCNC(=N)N)C(=O)N[C@H](CCCNC(=N)N)C(=O)N[C@@H](Cc1c[nH]c2ccccc12)C(=O)N[C@@H](Cc1ccc2ccccc2c1)C(=O)N[C@@H](Cc1ccc2ccccc2c1)C(=O)O [IFX-113-1] (H-[dR][dR][dR][dR]W[2Nal][2Nal]-OH) ... 300

###

# Test system: Pseudomonas aeruginosa (ATCC 27883)
# condition_label: ATCC 27883
Non-standard residues stand in square brackets, D forms with d. Residues, ends and D or L forms follow the SMILES beside them. Trp(6-Cl) = N[C@@H](Cc1c[nH]c2cc(Cl)ccc12)C(=O)O; 2Nal = N[C@@H](Cc1ccc2ccccc2c1)C(=O)O; d2Nal = N[C@H](Cc1ccc2ccccc2c1)C(=O)O; Dab = NCC[C@H](N)C(=O)O
reported_metric: MIC P. aeruginosa ATCC 27883 (µg/mL)

1) N=C(N)NCCC[C@H](NC(=O)[C@H](CCCNC(=N)N)NC(=O)[C@H](CCCNC(=N)N)NC(=O)[C@@H](N)CCCNC(=N)N)C(=O)N[C@@H](Cc1ccc2ccccc2c1)C(=O)N[C@@H](Cc1ccc2ccccc2c1)C(=O)N[C@@H](Cc1ccc2ccccc2c1)C(=O)O [IFX-009-1, NH2-Arg-Arg-Arg-Arg-NaI-NaI-NaI-OH] (H-RRRR[2Nal][2Nal][2Nal]-OH) ... 12.5
2) N=C(N)NCCC[C@@H]1NC(=O)[C@H](CCN)NC(=O)[C@@H](Cc2ccc3ccccc3c2)NC(=O)[C@@H](Cc2ccc3ccccc3c2)NC(=O)[C@H](Cc2c[nH]c3ccccc23)NC(=O)[C@@H](CCCNC(=N)N)NC(=O)[C@H](CCCNC(=N)N)NC(=O)[C@H](CCN)NC(=O)[C@@H](CCCNC(=N)N)NC1=O [IFX-058, c[Dab-Arg-arg-Dab-Arg-arg-Trp-naI-naI]] (cyclo([Dab]R[dR][Dab]R[dR]W[d2Nal][d2Nal])) ... 32
3) N=C(N)NCCC[C@@H]1NC(=O)[C@@H](CCCNC(=N)N)NC(=O)[C@H](CCCNC(=N)N)NC(=O)[C@@H](CCCNC(=N)N)NC(=O)[C@@H](Cc2ccc3ccccc3c2)NC(=O)[C@@H](Cc2ccc3ccccc3c2)NC(=O)[C@@H](Cc2ccc3ccccc3c2)NC1=O [IFX-082, c[arg-Arg-arg-Arg-naI-naI-naI]] (cyclo([dR]R[dR]R[d2Nal][d2Nal][d2Nal])) ... 12.5
4) N=C(N)NCCC[C@@H]1NC(=O)[C@H](CCCNC(=N)N)NC(=O)[C@H](CCCNC(=N)N)NC(=O)[C@H](Cc2c[nH]c3cc(Cl)ccc23)NC(=O)[C@H](Cc2c[nH]c3cc(Cl)ccc23)NC(=O)[C@H](Cc2c[nH]c3cc(Cl)ccc23)NC(=O)[C@H](Cc2c[nH]c3cc(Cl)ccc23)NC(=O)[C@H](CCCNC(=N)N)NC1=O [IFX-040, c[Arg-Arg-Arg-Arg-6clW-6clW-6clW-6clW]] (cyclo(RRRR[Trp(6-Cl)][Trp(6-Cl)][Trp(6-Cl)][Trp(6-Cl)])) ... 100
5) N=C(N)NCCC[C@@H]1NC(=O)[C@@H](CCCNC(=N)N)NC(=O)[C@H](CCCNC(=N)N)NC(=O)[C@@H](Cc2ccc3ccccc3c2)NC(=O)[C@@H](Cc2ccc3ccccc3c2)NC(=O)[C@H](Cc2c[nH]c3ccccc23)NC(=O)[C@H](CCN)NC(=O)[C@@H](CCCNC(=N)N)NC1=O [IFX-054, c[Arg-arg-Arg-arg-Dab-Trp-naI-naI]] (cyclo([Dab]W[d2Nal][d2Nal]R[dR]R[dR])) ... 64

###

# test_protocol: in vitro
# condition_label: human, fresh human red blood cells (washed), pH 7.4
Non-standard residues stand in square brackets, D forms with d. Residues, ends and D or L forms follow the SMILES beside them. dDip = N[C@@H](C(=O)O)C(c1ccccc1)c1ccccc1; Dip = N[C@H](C(=O)O)C(c1ccccc1)c1ccccc1; 2Nal = N[C@@H](Cc1ccc2ccccc2c1)C(=O)O; d2Nal = N[C@H](Cc1ccc2ccccc2c1)C(=O)O
reported_metric: HC50 at 0.5 h (µg/mL)

1) N=C(N)NCCC[C@@H](N)C(=O)N[C@H](CCCNC(=N)N)C(=O)N[C@H](CCCNC(=N)N)C(=O)N[C@H](CCCNC(=N)N)C(=O)N[C@@H](Cc1c[nH]c2ccccc12)C(=O)N[C@H](Cc1ccc2ccccc2c1)C(=O)N[C@H](Cc1ccc2ccccc2c1)C(=O)O [IFX-109-1] (H-[dR][dR][dR][dR]W[d2Nal][d2Nal]-OH) ... 375
2) N=C(N)NCCC[C@H](NC(=O)[C@H](CCCNC(=N)N)NC(=O)[C@H](CCCNC(=N)N)NC(=O)[C@@H](N)CCCNC(=N)N)C(=O)N[C@@H](Cc1c[nH]c2ccccc12)C(=O)N[C@H](Cc1ccc2ccccc2c1)C(=O)N[C@H](Cc1ccc2ccccc2c1)C(=O)O [IFX-112-1] (H-RRRRW[d2Nal][d2Nal]-OH) ... 370
3) N=C(N)NCCC[C@@H]1NC(=O)[C@H](CCCNC(=N)N)NC(=O)[C@H](CCCNC(=N)N)NC(=O)[C@@H](CCCNC(=N)N)NC(=O)[C@H](Cc2ccc3ccccc3c2)NC(=O)[C@H](Cc2ccc3ccccc3c2)NC(=O)[C@H](Cc2ccc3ccccc3c2)NC1=O [IFX-080, c[arg-Arg-Arg-Arg-NaI-NaI-NaI]] (cyclo([dR]RRR[2Nal][2Nal][2Nal])) ... 200
4) N=C(N)NCCC[C@@H]1NC(=O)[C@H](C(c2ccccc2)c2ccccc2)NC(=O)[C@@H](C(c2ccccc2)c2ccccc2)NC(=O)[C@H](C(c2ccccc2)c2ccccc2)NC(=O)[C@@H](CCCNC(=N)N)NC(=O)[C@H](CCCNC(=N)N)NC(=O)[C@@H](CCCNC(=N)N)NC1=O [IFX-071, c[Arg-arg-Arg-arg-Dip-dip-Dip]] (cyclo(R[dR]R[dR][Dip][dDip][Dip])) ... 150
5) N=C(N)NCCC[C@@H]1NC(=O)[C@H](CCCNC(=N)N)NC(=O)[C@@H](CCCNC(=N)N)NC(=O)[C@@H](CCCNC(=N)N)NC(=O)[C@@H](Cc2ccc3ccccc3c2)NC(=O)[C@@H](Cc2ccc3ccccc3c2)NC(=O)[C@@H](Cc2c[nH]c3ccccc23)NC1=O [IFX-119, c[arg-arg-Arg-Arg-trp-naI-naI]] (cyclo([dR][dR]RR[dW][d2Nal][d2Nal])) ... 200
6) N=C(N)NCCC[C@H]1NC(=O)[C@H](Cc2ccc3ccccc3c2)NC(=O)[C@H](Cc2ccc3ccccc3c2)NC(=O)[C@H](Cc2ccc3ccccc3c2)NC(=O)[C@@H](CCCNC(=N)N)NC(=O)[C@@H](CCCNC(=N)N)NC(=O)[C@@H](CCCNC(=N)N)NC1=O [IFX-087, c[arg-arg-arg-arg-NaI-NaI-NaI]] (cyclo([dR][dR][dR][dR][2Nal][2Nal][2Nal])) ... 145
